test: Cytotoxicity against mouse EAC cells assessed as dead cells at 25 uM after 24 hrs by trypan blue dye exclusion method relative to control; assay type: functional, Ehrlich
Rule: measured Activity below 30% gets Y; anything equal to or greater than 30% gets N.

- compound: "COc1cc(/C=C2\\CCCc3c2nc(N)c(C#N)c3-c2ccc(O)c(OC)c2)ccc1O"
  assigned class: "N"
- compound: "COc1ccc(/C=C/C2=NN(C(N)=S)C(c3ccc(OC)cc3)C2)cc1 (stereo not given)"
  assigned class: "Y"
- compound: "COc1ccc(/C=C2\\CCCC3C2=NN(C2=NC(=O)/C(=C/c4ccc(Cl)cc4)S2)C3c2ccc(OC)cc2)cc1 (stereo not given)"
  assigned class: "Y"
- compound: "CCN1C/C(=C\\c2ccc(OC)cc2)C2=NN(c3nc(-c4ccccc4)cs3)C(c3ccc(OC)cc3)C2C1 (stereo not given)"
  assigned class: "Y"
